# Tested on: RKO (RKOp27) human colon adenocarcinoma cells
# measurement-notes: Alamar Blue cell viability assay, anti-proliferative/cytotoxic activity, RKO p27 uninduced
# Assay type: cell-based
# test-context: RKOp27, 72 h, proliferating cells, absence of the inducer Ponasterone A, 72 hours incubation
measured-quantity: IC50

COc1cccc(C(=O)Nc2sc3c(c2C#N)CCN(C(=O)OC(C)(C)C)C3)c1 [Compound 3]	≤ 2 µM
CC(=O)NCCOC(=O)N1CCc2c(sc(NC(=O)c3ccccc3)c2C#N)C1 [Compound 94]	≤ 3 µM

Which IC50 value belongs to CC(C)(C)OC(=O)N1CCc2c(sc(NC(=O)c3ccccc3)c2C#N)C1 [Compound 1] ?
≤ 2 µM
